Target: Neurogenic locus notch homolog protein 3 (Homo sapiens)
Assay: NOTCH3 binders on small-molecule microarray, primary screen, biochemical, 635/667 nm fluorescence (AID 1096)
Conditions: NOTCH3 binding, 635 nm fluorescence, higher = more signal
measure: composite z-score
Numbers only.

Below: 5 compounds and their reported composite z-score.
compound	measure	measured.result
COC(=O)C1(Cc2ccccc2)C=C2C(=C(C(C)C)C(=O)C2C)CN1 (stereo unspecified)	composite z-score	-1.05
COCCOC(=O)N1C(=O)[C@@]2(c3cc(C#CC4(O)CCCCCC4)ccc31)[C@H](C(=O)N1CCCCCCC1)[C@H]1C(=O)O[C@H](c3ccccc3)[C@H](c3ccccc3)N1[C@@H]2c1ccc(OCCO)cc1	composite z-score	1.03
O=C1O[C@@H](c2ccccc2)[C@@H](c2ccccc2)N2[C@@H](c3ccc(O)cc3)[C@]3(C(=O)Nc4ccc(C#CCCO)cc43)[C@@H](C(=O)NC[C@H](O)c3ccccc3)[C@H]12	composite z-score	-0.494
COc1ccc([Si](C)(C)[C@H]2[C@H](CCn3cc([C@H](O)c4ccccc4)nn3)O[C@@]3(C(=O)N(Cc4ccc(N5CCC5=O)cc4)c4ccccc43)[C@@H]2C)cc1	composite z-score	0.698
COC(=O)c1c(CC[C@@H](CO)NC(=O)N[C@H](Cn2cc(-c3ccccc3C)nn2)C(C)C)oc(C(C)=O)c1C(=O)OC	composite z-score	-0.465

As a next step, examine the compound that follows.
Query (compound): COc1cc(CO)cc(I)c1O[C@H]1C=C(C(=O)NCCO)C[C@@H](N(CC2CCCCC2)C(=O)c2ccc(C(F)(F)F)cc2)[C@@H]1O ; field requested: composite z-score
0.937
